Parameter: pKd. Scope: all listed entries.
Tested System: T1, Activin A (UniProt P08476 311-426)
T1 sequence (looked up): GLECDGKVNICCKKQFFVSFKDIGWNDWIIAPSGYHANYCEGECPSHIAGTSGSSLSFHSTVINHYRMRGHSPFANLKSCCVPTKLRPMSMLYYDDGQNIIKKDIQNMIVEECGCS
Experimental Protocol: SPR (Biacore 8K), Fc protein captured on anti-human IgG, ligand injected
pKd: −log10 of the molar value.

Binder	pKd
ActRIIB-B1B4 (SEQ ID NO: 117) chimera-Fc protein (Fc fusion, Tested as chimera-Fc protein; not shown: linker (if any) and Fc domain) GRGEAETRECLFFNANWELERTNQSGLERCEGEQDKRLHCYASWRNSSGSIEIVKQGCWLDDFNCYDRQECVATEENPQVYFCCCEGNFCNERFTHLPEAGGPEVTYEPPPTAPT	10.97
ActRIIA-B2B4 (SEQ ID NO: 103) chimera-Fc protein (Fc fusion, Tested as chimera-Fc protein; not shown: linker (if any) and Fc domain) GAILGRSETQECLEFNANWEKDRTNQSGLERCYGDKDKRRHCFATWKNISGTIELVKKGCWLDDINCYDRTDCVEKKDSPEVYFCCCEGNMCNEKFSYFPEMEVTQPTS	10.80
